ASSAY PROCEDURE: chemical genetic growth profiling, strain panel (AID 1159580);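 further: tested at 20 µM; growth read once vehicle control cultures reached saturation at 30 °C; 1 = growth at the plate median or of vehicle wells; lower values mean less growth of the strain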
EXPERIMENTAL CONTEXT: S. cerevisiae deletion strains, growth OD, locus YNL071W, strain lat1, active compounds read low
Among all 5,500 compounds or so, about 2,000 (36%) were called active. Another 18% or so got no clear call; they are omitted. This is one part of the list.
The following compounds are shown together with reported normalized growth values.
Kindly provide the number alone.

# example entries with known answers
O=C(/C=C/c1ccccc1)c1ccc(O)cc1
0.0619
CC(=O)O[C@H]1C[C@@H](O)C(C)(C)C2C[C@@H](OC(C)=O)[C@]3(C)C(CC[C@@]4(C)[C@H](c5ccoc5)OC(=O)C5OC543)[C@]21C (stereo partly specified)
1
C[C@@H]1CC[C@@]2(OC1)OC1C(O)C3C4CC[C@H]5C[C@H](O[C@@H]6O[C@H](CO)[C@H](O[C@@H]7O[C@H](CO)[C@@H](O)[C@H](O[C@@H]8OC[C@@H](O)[C@H](O)[C@H]8O)[C@H]7O[C@@H]7O[C@H](CO)[C@H](O)[C@H](O[C@@H]8O[C@H](CO)[C@@H](O)[C@H](O)[C@H]8O)[C@H]7O)[C@H](O)[C@H]6O)[C@H](O)C[C@]5(C)C4CC[C@]3(C)C1[C@@H]2C (stereo partly specified)
1.03
COc1ccc(C(=O)/C=C/c2ccccc2)cc1
0.307

// query normalized growth value for entry CC(=O)O[C@H]1C[C@@]2(C)[C@H](c3ccoc3)OC(=O)[C@H]3O[C@]32[C@@]2(C)C1[C@]1(C)C(C[C@H]2OC(C)=O)C(C)(C)[C@H](OC(C)=O)C[C@@H]1OC(C)=O (stereo partly specified)
0.999

Now consider CC(=O)O[C@@H]1CC2C(C)(C)C(=O)CC[C@]2(C)C2CC[C@@]3(C)[C@H](c4ccoc4)OC(=O)C4OC43[C@@]21C (stereo partly specified) .
0.989

====

ASSAY PROCEDURE: chemical genetic growth profiling, strain panel (AID 1159580);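 further: tested at 20 µM; growth read once vehicle control cultures reached saturation at 30 °C; 1 = growth at the plate median or of vehicle wells; lower values mean less growth of the strain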
EXPERIMENTAL CONTEXT: S. cerevisiae deletion strains, growth OD, locus YGL086W, strain mad1, active compounds read low
Hit rate of the full screen: of about 5,500 compounds, about 2,000 (36%) were called active. About 18% were inconclusive and are not listed. The list shows a part of the results.
Consider the cut-off 0.9. If the recorded normalized growth is strictly smaller, the label is True; if not, the label is False.

CC(=O)[C@H]1CCC2C3CC=C4C[C@@H](O)CC[C@]4(C)C3CC[C@@]21C (stereo not given in full)
False
O=C(O)/C=C(\CC(=O)O)C(=O)O
False
CCCCCCCCCc1ccc(O)cc1
True

Here's an entry: CC(N)Cc1ccc(O)cc1 (stereo not given) . Is its normalized growth below 0.9?
False

Now consider COCCOC(=O)C1=C(C)NC(C)=C(C(=O)OC(C)C)C1c1cccc([N+](=O)[O-])c1 (stereo not given) .
False

Now consider CCC(/C=C/[C@@H](C)[C@H]1CCC2C3CC=C4C[C@@H](O)CC[C@]4(C)C3CC[C@@]21C)C(C)C (stereo not given in full) .
False

Now consider COC(=O)C1=C(C)NC(C)=C(C(=O)OCCN(C)Cc2ccccc2)C1c1cccc([N+](=O)[O-])c1 (stereo not given) .
False

Now consider COC(=O)C1=C(C)NC(C)=C(C(=O)OC)C1c1ccccc1[N+](=O)[O-] .
True

Now consider CCCCCCc1ccc(O)cc1O .
True

Now consider NCCc1ccc(O)c(O)c1 .
False
